- Tested on: Campylobacter coli
- assay.info: Antibacterial activity against bla gene-positive and nitrocefin reaction-positive beta-lactamase harboring Campylobacter coli isolate P1826 by NCCLS agar doubling dilution method
- Type: functional
What log10 of MIC was measured for each of the following?
Each number you see is log10 of MIC, and the unit inside the log is µg/mL.

Answer for every listed entry: what is its log10 of MIC? The entries follow.
1. CC1(C)S[C@@H]2[C@H](NC(=O)C(C(=O)O)c3ccccc3)C(=O)N2[C@H]1C(=O)O (stereo partly drawn) [CARBENICILLIN]
2. C[C@H]1[C@H](NC(=O)/C(=N\OC(C)(C)C(=O)O)c2csc(N)n2)C(=O)N1S(=O)(=O)O [AZTREONAM]
3. Cc1onc(-c2ccccc2Cl)c1C(=O)N[C@@H]1C(=O)N2[C@@H]1SC(C)(C)[C@@H]2C(=O)O [CLOXACILLIN]
4. CO[C@@]1(NC(=O)Cc2cccs2)C(=O)N2C(C(=O)O)=C(COC(N)=O)CS[C@@H]21 [CEFOXITIN]
5. CO/N=C(\C(=O)N[C@@H]1C(=O)N2C(C(=O)O)=C(COC(N)=O)CS[C@H]12)c1ccco1 [CEFUROXIME]
6. CCN1CCN(C(=O)N[C@@H](C(=O)N[C@@H]2C(=O)N3[C@@H]2SC(C)(C)[C@@H]3C(=O)O)c2ccccc2)C(=O)C1=O [PIPERACILLIN]

RESULT:
[2.11, 1.51, 2.41, 2.11, 1.81, 2.71]

// batch mode: one log10 of MIC value per listed entry
1. CO/N=C(\C(=O)N[C@@H]1C(=O)N2C(C(=O)O)=C(COC(C)=O)CS[C@H]12)c1csc(N)n1 [CEFOTAXIME]
2. CC1(C)S[C@@H]2[C@H](NC(=O)[C@H](N)c3ccccc3)C(=O)N2[C@H]1C(=O)O [AMPICILLIN]

RESULT:
1: 0.30; 2: 2.11

Numbers sourced from ChEMBL document CHEMBL1649560.
